// data source = patent US12501868B2

- System: maize pollen
- ASSAY_OVERVIEW: Relative ROS level in maize pollen (ROS detection kit, fluorometry)
- Assay type: cell-based
- DETAILS: red channel; ratio to 40% sucrose control; final concentration as listed per compound in Table 5; 6-7 measurements
READOUT_NAME: Relative ROS Level Red

Qu. Given the entry C/C1=C\[C@H](C)C[C@H](C)OC(=O)C[C@H](c2ccc(O)cc2)NC(=O)[C@@H](Cc2c(Br)[nH]c3ccccc23)N(C)C(=O)[C@H](C)NC(=O)[C@@H](C)C1 [Compound 6, Jasplakinolide] , what Relative ROS Level Red was observed with maize pollen?
Ans. 1.77 ± 0.16

Qu. Given the entry C/C1=C/C(=O)O[C@@H]2C[C@@H](CC[C@H](C)/C=C\C=C\CC1)O[C@@](O)([C@@H]1CSC(=O)N1)C2 , what Relative ROS Level Red was observed with maize pollen?
Ans. 1.35 ± 0.05

Qu. Given the entry O=C(NCCN1CCC(n2c(=O)[nH]c3ccccc32)CC1)c1cc2cc(F)ccc2[nH]1 , what Relative ROS Level Red was observed with maize pollen?
Ans. 1.34 ± 0.07

Qu. Given the entry Nc1ncnc2c1ncn2[C@@H]1O[C@@H]2COP(=O)(O)O[C@H]2[C@H]1O [Compound 3, cyclic Adenosine Monophosphate] , what Relative ROS Level Red was observed with maize pollen?
Ans. 1.97 ± 0.10

Qu. Given the entry c1ccc2c(c1)[I+]c1ccccc1-2 [Compound 11, Diphenyl iodide chloride] , what Relative ROS Level Red was observed with maize pollen?
Ans. 1.55 ± 0.13

Qu. Given the entry S=C([S-])OC1CC2CC1C1CCCC21.[K+] (centres unmarked) , what Relative ROS Level Red was observed with maize pollen?
Ans. 1.14 ± 0.10

Qu. Given the entry Cc1ccc2c(c1)C(=O)C1(O)CCN(c3ccccc3)C1=N2 (centres unmarked) , what Relative ROS Level Red was observed with maize pollen?
Ans. 1.35 ± 0.17

Qu. Given the entry C/C1=C/C(=O)O[C@@H]2C[C@@H](CC[C@H](C)/C=C\CC1)O[C@@](O)([C@@H]1CSC(=O)N1)C2 , what Relative ROS Level Red was observed with maize pollen?
Ans. 1.66 ± 0.06
